The reader will find reported TGI values listed item by item below.
# Tested on: HCT-116 colon
# test: NCI tumour cell line growth inhibition, 48 h

## Task Can you share its TGI? I mean this compound: c1cnc2c(c1)ccc1cccnc12
## Result > 100 µM

---
## Task For the compound Cc1cc(C#Cc2ccc(C(C)(C)C)cc2)ccc1-n1c(/C=C/c2ccc(O)cc2O)nc2ccccc2c1=O , what TGI is on record?
## Result 10.8 µM

## Task Quick check: TGI of COc1cc2c(c(O)c1OC)C(=O)[C@@H]1CCC(=O)N1C2 ?
## Result > 100 µM

## Task State the recorded TGI for this entry: O=C(c1nc2ccccc2[nH]c1=O)C(O)c1ccccc1 (stereo not given)
## Result > 100 µM

## Task Can you look up the measured TGI of [O-]c1c2cc(-[n+]3c(-c4ccccc4)cc(-c4ccccc4)cc3-c3ccccc3)cc1COCCOCCOCCOCCOC2 for me?
## Result > 100 µM

* * *

# Tested on: BT-549 breast
# test: NCI tumour cell line growth inhibition, 48 h; in the data active means GI50 below about 0.43 µM; inactive means the rest
Classes to choose from: active, inactive

Past entries and their recorded results:
## Task In this assay, the call recorded for COC(=O)[C@H]1CCCN1C(=O)[C@H]1CCCN1C(=O)[C@@H](Cc1c[nH]c2ccccc12)NC(=S)Nc1cc(C(F)(F)F)cc(C(F)(F)F)c1 was what?
## Result inactive

## Task Please let me know the test result on file for C=CCN1CC(=O)N2[C@@H](Cc3ccc(O)cc3F)C(=O)N(Cc3cccc(N4CC(N5CCN(CC)CC5)C4)n3)C[C@@H]2N1C(=O)NCc1ccccc1 .
## Result active

## Task Answer briefly: the call reported for O=C(CCCCCCN1CC(=O)N2[C@@H](c3ccc(Cl)c(Cl)c3)c3[nH]c4ccccc4c3C[C@H]2C1=O)NO in this assay.
## Result inactive

Turning now to a further compound:
## Task Per the records of this test, what outcome belongs to Cc1cccc2c3c(sc12)C(c1ccc(Cl)cc1)C(C#N)=C(N)O3 (centres undefined) ?
## Result inactive

* * *

# System: SW-620 colon
# test: NCI tumour cell line growth inhibition, 48 h
observation type: TGI

## Task Given OCCN(CCO)c1ncnc2nc[nH]c12 , state its recorded TGI.
## Result > 100 µM

## Task For CCC1OC2C(CC=C(C)C)=C3OC(C)(O)C(C)(CC)C(OC(C)=O)C3=C3OC(=O)C=C1C32 (stereo unspecified) , what is its reported TGI?
## Result > 100 µM

## Task What measured TGI goes with C[N+](C)(C)CC1CCCC1=O (stereo unspecified) ?
## Result 1.07 µM

## Task Can you look up the measured TGI of [N-]=[N+]=NI1OC(=O)c2ccccc21 for me?
## Result > 100 µM

## Task Give the measured TGI of CC1(C)CC(=O)C2=C(C1)OC(N)=C(c1nc(-c3ccccc3)cs1)C2c1ccc(Br)cc1 (stereo unspecified) .
## Result > 150 µg/mL

---
## Task May I ask what TGI has been recorded for N#CC(C#N)c1ccc(C(=O)N2CCC[C@H]2CO)cc1 ?
## Result > 100 µM

## Task I would be grateful if you could share the reported TGI for CCOC(=O)c1c(C)n(-c2ccc(Cl)cc2)c2c1cc(O)c1[nH]c3c(c12)CCCC3 .
## Result > 100 µM

## Task Look at this compound and give its reported TGI. O=C1Nc2ccccc2N=CC1NC(=O)C(c1ccccc1)c1ccccc1 (stereo unspecified)
## Result > 100 µM

## Task Bench note: what TGI did O=C(NC1CCN(Cc2ccccc2)CC1)c1ccc(I)cc1 show?
## Result > 100 µM

## Task If you can, please state the reported TGI value of COc1cc(/C=C/C(=O)c2cccc(-n3cc(-c4ccc(Cl)cc4)[nH]c3=O)c2)cc(OC)c1OC .
## Result 3.17 µM

## Task Form field: reported TGI of CCCCCCNC(=O)Oc1ccc(/C(=C(\C)c2ccc(Cl)cc2)c2ccc(OCCN3CCCCC3)cc2)cc1
## Result 5.59 µM

## Task # query: TGI of entry Oc1c(I)cc(I)c2cccnc12
## Result > 100 µM

## Task Fill in the blank: the reported TGI of O=C(CC1SC(=Nc2ccccc2Cl)NC1=O)Nc1ccc(Cl)cc1Cl (stereo unspecified) is ____.
## Result > 100 µM

## Task For N#CC1=C(/N=C/c2ccccc2)Oc2c(ccc3ccccc23)C1c1ccccc1 (stereo unspecified) , what is its reported TGI?
## Result > 100 µM

## Task Sample O=C(O)c1cccc(C(=O)O)c1S(=O)Cc1ccccc1 (stereo unspecified) — what was its TGI?
## Result > 100 µM

Every entry's value here was drawn from PubChem BioAssay (NCI).
